Experiment: Antiproliferative activity against human MDA231 cells after 24 hrs by trypan blue exclusion assay
Type: functional, cell-based
Details: MDA-MB-231, 24 h
measurement.name: IC50
I'd appreciate it if you wrote the number followed by its unit.

Examples with answers:
COc1ccc2c(c1)c(/C=C1\NC(=O)NC1=O)cn2Cc1ccccc1 | 7 µM
O=c1[nH]cc(F)c(=O)[nH]1 [FLUOROURACIL] | 3.5 µM
Cc1ccc2c(c1)c(/C=C1\NC(=O)NC1=O)cn2Cc1ccccc1 | 20.1 µM

Okay, now this compound:
Q. # get_value(readout='IC50', item= "O=C1NC(=O)/C(=C/c2cn(Cc3ccc(Cl)cc3)c3ccccc23)N1" )
A. 25.3 µM

###

# pIC50 per record follows
System: MCF7
Test: Antiproliferative activity against human MCF7 cells after 24 hrs by trypan blue exclusion assay
Format: functional, cell-based
Details: MCF7, 24 h
// pIC50: -log10(molar conc.)

Q. # get_value(readout='pIC50', item= "O=C1NC(=O)/C(=C/c2cn(Cc3ccccc3Br)c3ccccc23)N1" )
A. 5.36

Q. # get_value(readout='pIC50', item= "N#Cc1ccc(Cn2cc(/C=C3\NC(=O)NC3=O)c3ccccc32)cc1" )
A. 4.85

Q. # get_value(readout='pIC50', item= "COc1ccc2c(c1)c(/C=C1\NC(=O)NC1=O)cn2Cc1ccccc1" )
A. 5.14

Q. # get_value(readout='pIC50', item= "O=C1NC(=O)/C(=C/c2cn(Cc3ccccc3)c3ccc(Cl)cc23)N1" )
A. 5.04

Q. # get_value(readout='pIC50', item= "O=c1[nH]cc(F)c(=O)[nH]1" )
A. 4.82

###

# pIC50 per record follows
System: NCI-H460
Assay: Antiproliferative activity against human H460 cells after 24 hrs by trypan blue exclusion assay
Type: functional, cell-based
Settings: NCI-H460, 24 h
// pIC50: -log10(molar conc.)

Examples with answers:
Cc1ccc(Cn2cc(/C=C3\NC(=O)NC3=O)c3ccccc32)cc1 | 4.58
O=C1NC(=O)/C(=C/c2cn(Cc3ccccc3)c3ccc(Cl)cc23)N1 | 4.57

Q. # get_value(readout='pIC50', item= "COC(=O)c1ccc(Cn2cc(/C=C3\NC(=O)NC3=O)c3ccccc32)cc1" )
A. 4.51

Q. # get_value(readout='pIC50', item= "O=C1NC(=O)/C(=C/c2cn(Cc3ccc(Cl)cc3)c3ccccc23)N1" )
A. 4.60

###

Tested on: MCF7
Test: Antiproliferative activity against human MCF7 cells after 24 hrs by trypan blue exclusion assay
Type: functional, cell-based
Conditions: MCF7, 24 h
measurement.name: IC50 (µM)
Quick reminder: number only, in µM, skip the unit.

Cc1ccc(Cn2cc(/C=C3\NC(=O)NC3=O)c3ccccc32)cc1 | 20.2

Q. # get_value(readout='IC50', item= "O=C1NC(=O)/C(=C/c2cn(Cc3ccc(Cl)cc3)c3ccccc23)N1" )
A. 21.4

###

# pIC50 per record follows
System: MCF7
Experiment: Antiproliferative activity against human MCF7 cells after 24 hrs by trypan blue exclusion assay
Format: functional, cell-based
Conditions: MCF7, 24 h
// pIC50: -log10(molar conc.)

Examples with answers:
O=C1NC(=O)/C(=C/c2cn(Cc3ccc(F)cc3)c3ccccc23)N1 | 4.65
O=C1NC(=O)/C(=C/c2cn(Cc3ccccc3)c3ccc(Br)cc23)N1 | 5.12

Q. # get_value(readout='pIC50', item= "O=C1NC(=O)/C(=C/c2cn(Cc3ccc([N+](=O)[O-])cc3)c3ccccc23)N1" )
A. 4.96
